test: Human HepG2 cell viability assay in 384 well format; assay type: toxicity, cell-based; set-up: dose 125 nL, time 70.5 hour; concentration not given beside the values; details: HepG2 cells, read-out: Inhibition
measure: cytotoxicity at 70.5 h
Be sure to follow the number with its unit.

* CCN1CCC(NC(=O)CN2CCCC2Cn2nc(C)cc2C)CC1 (configuration not stated) | -9.53%
* Cc1noc(C)c1CN1C[C@@H](C(=O)O)[C@H](c2ccccc2)C1 | -5.34%
* CCC(CO)N(Cc1ccccn1)C(=O)c1ccc(=O)[nH]c1 (configuration not stated) | -4.96%
* COc1ccccc1CC(C)CC(=O)N(C)Cc1cc(C)on1 (configuration not stated) | 2.26%
* COCCNC(=O)NC1CCN(c2cnn(C)c2)C1 (configuration not stated) | -4.09%

Form field cytotoxicity at 70.5 h, entry CCOc1cccc(CNc2ccccc2OC)c1O : -8.56%

Form field cytotoxicity at 70.5 h, entry c1nc(NCc2cc3n(n2)CCN(C2CCCCC2)C3)c2nc[nH]c2n1 : -11.7%

Form field cytotoxicity at 70.5 h, entry O=C(c1cscn1)N1C[C@@H](Oc2cccnc2)[C@H]2OCCC[C@H]21 : 26.4%

Form field cytotoxicity at 70.5 h, entry O=C(CN1CCN(c2ncnc3cccc(F)c23)CC1)N1CCCC1 : -9.51%

Form field cytotoxicity at 70.5 h, entry Cc1cc(CCC(=O)NCc2nccn2C)ccc1Br : 1.59%

Form field cytotoxicity at 70.5 h, entry CCOc1cccc(C(C)NCc2ccc(OC)c(OC)c2OC)c1 (configuration not stated) : 6.82%

Form field cytotoxicity at 70.5 h, entry Cc1cccc(-c2nc(C)nn2CN2CCC3(CC2)OCCO3)c1 : 11.8%
